Molecular target: anti-MAG IgM antibodies
Assay: Competitive binding assay (modified anti-MAG ELISA): compounds compete with immobilized MAG for anti-MAG IgM antibodies of patient sera
Design: species or system human
Details: patient serum MK; approximated value, artificial point at 500 mM with 0% antibody binding added for curve fit
Observed Property: pIC50
Give bare numbers, as −log10 of the molar value.

Task: Given the entry COc1ccc(OC2OC(CO)C(O)C(OC3OC(C(=O)O)C(O)C(O)C3O)C2O)cc1 (stereo not shown) , report its measured pIC50.
Result: 1.54

----------
Molecular target: anti-MAG IgM antibodies
Test: Competitive binding assay (modified anti-MAG ELISA): compounds compete with immobilized MAG for anti-MAG IgM antibodies of patient sera
Design: species or system human
Settings: patient serum MK (dilution 1:23,000); MAG-coated plates
Observed Property: IC50 (µM)
Give bare numbers, in µM.

Task: Given the entry COc1ccc(OC2OC(CO)C(O)C(OC3OC(C(=O)O)C(O)C(OS(=O)(=O)O)C3O)C2O)cc1 (stereo not shown) , report its measured IC50.
Result: 124
